MEASURED TARGET: T1, human MASP-3 (construct not stated) (human)
T1 construct: also called MASP-3 antigen
T1 chain: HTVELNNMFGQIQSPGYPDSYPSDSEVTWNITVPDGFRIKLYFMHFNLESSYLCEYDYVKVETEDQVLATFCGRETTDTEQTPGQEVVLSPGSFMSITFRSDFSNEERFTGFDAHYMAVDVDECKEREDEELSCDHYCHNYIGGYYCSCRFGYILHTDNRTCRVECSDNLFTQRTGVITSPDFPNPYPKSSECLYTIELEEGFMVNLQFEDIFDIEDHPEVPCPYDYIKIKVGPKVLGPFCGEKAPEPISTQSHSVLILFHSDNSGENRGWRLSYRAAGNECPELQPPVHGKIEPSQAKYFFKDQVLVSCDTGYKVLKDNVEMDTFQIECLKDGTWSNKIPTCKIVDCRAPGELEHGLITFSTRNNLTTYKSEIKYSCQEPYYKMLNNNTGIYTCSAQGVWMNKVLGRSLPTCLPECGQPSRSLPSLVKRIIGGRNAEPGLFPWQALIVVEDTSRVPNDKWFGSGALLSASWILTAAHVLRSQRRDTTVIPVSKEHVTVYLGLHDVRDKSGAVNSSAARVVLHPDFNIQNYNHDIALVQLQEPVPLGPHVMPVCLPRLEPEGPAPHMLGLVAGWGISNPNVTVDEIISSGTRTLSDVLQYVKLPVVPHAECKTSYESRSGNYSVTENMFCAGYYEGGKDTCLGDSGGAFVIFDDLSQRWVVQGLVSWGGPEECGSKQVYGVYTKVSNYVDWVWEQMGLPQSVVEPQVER
TEST DETAILS: ELISA, monovalent Fab
Listed next: entries and their corresponding pEC50.
Just so you know, pEC50 here is -log10 of the concentration in molar units; reply with that number alone.

INSERT INTO assay_data (binder, value_type, value_observed) VALUES
  ('4D5 Parental Fab (Fab, V domains shown, Monovalent Fab; also called 4D5 Fab) VH: QVQLKQSGPELVKPGASVKLSCKASGYTFTTDDINWVKQRPGQGLEWIGWIYPRDDRTKYNDKFKDKATLTVDTSSNTAYMDLHSLTSEDSAVYFCSSLEDTYWGQGTLVAVSS VL: DIVMTQSPSSLAVSAGEKVTMTCKSSQSLLNSRTRKNYLAWYQQKPGQSPKLLIYWASTRESGVPDRFTGSGSGTDFSLTISSVQAEDLAVYYCKQSYNLYTFGGGTKLEIKR', 'pEC50', 9.97);

As a next step, examine the binder that follows.
Prompt line: Entry h4D5_14-1 Fab (VH-14 and VL-1) (Fab, V domains shown, Humanized monovalent Fab) VH: QVQLVQSGAEVKKPGASVKVSCKASGYTFTTDDINWVRQAPGQGLEWIGWIYPRDDRTKYNDKFKDKATLTVDTSSNTAYMELSSLRSEDTAVYYCSSLEDTYWGQGTLVTVSS VL: DIVMTQSPDSLAVSLGERATINCKSSQSLLNSRTRKNYLAWYQQKPGQPPKLLIYWASTRESGVPDRFSGSGSGTDFTLTISSLQAEDVAVYYCKQSYNLYTFGQGTKVEIKR needs its pEC50 filled in; supply it.
Response line: 10.07
